Record form. Attribute: apparent KD of MS2 coat protein. Fill in for each entry.
System: MS2 coat protein
assay-remarks: apparent KD of MS2 coat protein; designed switch direction (-1 OFF switch, 1 ON switch): -1; higher = weaker reporter binding
assay-conditions: input ligand: none
Give just the number in nM; leave the unit off.

Entry GCAAGGGAAGGAUAUACAUUACGACCGUCAUAGUACCUGCGACAUGAGGAUCACCCAUGUAGAAGGUCCAGCGG [EX2 C.13] (Eterna round: R97, puzzle: Exclusion 2) has what apparent KD of MS2 coat protein?
13.3

Also check UGCGCUUAAGGAUAUACUUCGGUGCGCCGAGAGUACGGCUAACUUGAGGAUCACCCAAGUAGAAGGUAAGAAAC [Esleberibe] (Eterna round: R97, puzzle: Exclusion 2)
1270

Also check GCGCGAAGGUAGGAUAUCCGGGCAUCUUGCCGCGGAGAAGGACCCACAUGAGGAUCACCCAUGUGGUGAUCCUG [eternacac ex6r4 sub12] (Eterna round: R97, puzzle: Exclusion 6)
19.4

----------
Test system: MS2 coat protein
assay-remarks: apparent KD of MS2 coat protein; designed switch direction (-1 OFF switch, 1 ON switch): -1; higher = weaker reporter binding
assay-conditions: Eterna round: R95; input ligand: none
outcome-measure: apparent KD of MS2 coat protein (nM)
Give just the number in nM; leave the unit off.

Entry AAUUAACAAGCGAGAUCCUACAUGAGGAUCACCCAUGUGCUCGUCUUAUAAAGUACUAUCACGAAAGUGAUAGUACA [Mat - Sensor v3 - turn-off var 1 - Eli Mod - D64] (puzzle: Sensor v3, turn-off variant 1) has what apparent KD of MS2 coat protein?
19.5

Also check GGGAUGUCAGGAUAUCCGAAAGUCUGCCAAUACGGCAGACAGGAGAAGGGACAUGAGGAUCACCCAUGUAAAGA [Aedxear] (puzzle: Exclusion 4)
49.4

Also check UUUUACUCAGGAUAUAUGAUGUGAAACAUGAGGAUCACCCAUGUAAUAUUAUGGAUGUAAAUAGAAGGGAGAUUUA [Mat - Exclusion 5 - JL mod - D16] (puzzle: Exclusion 5)
59.5

Also check GGUACUAACACGAUAGUGUUAGUACUAUAAGCUUGUGUUACAUGAGGAUCACCCAUGUCCUCAUAAGCUCGUCUUAU [Mat - Sensor v3 - Turn-off var 2 - D77] (puzzle: Sensor v3, turn-off variant 2)
98.6

Also check AGAUGGCGAGGAUAUACAUGAGGAUCACCCAUGUGAAUAAUAAUAGUGAGGAAGAAAAGUAGAAGGCGCUGUCA [Mat - Exclusion 3 - Mod of Salish D34] (puzzle: Exclusion 3)
41.2

Also check AGAAGACAUGAGGAUCACCCAUGUAAGGAUAUCGAAGGUAAGAGAGGAAAGAAGUUAACGAGAAGGUACAGGUG [JR_Exclu1_Sub097] (puzzle: Exclusion 1)
116

Also check CUUAAGGCAGGAUAUGCUGUUUGUGACAUGAGGAUCACCCAUGUGAUGCAGUUUGGGUGUGCAGAAGGGCCUGAGU [JR_E5_Sub032] (puzzle: Exclusion 5)
131

Also check CAUUAACAUGAGGAUCACCCAUGUGAGGAUAUGGAUACAUAAUACUACUACAUAAAUACCAGAAGGCGCAUACU [Maybaline] (puzzle: Exclusion 1)
55.1

Also check UUACAAUGUCGCUUACAAGCUUUUUGCUCGUCUUAUAUUACAUGAGGAUCACCCAUGUAGAUCAUGUGGCGUGACCU [JL ViennaUCT Maridi mod 9] (puzzle: Sensor v3, turn-off variant 2)
208

Also check AGGGAUAAAGGAUAUACAUGAGGAUCACCCAUGUUGAGGAAAGUGAGAUGAGGAGGAAGUAGAAGGUUAGGCGA [JR_Exclu3_Sub085] (puzzle: Exclusion 3)
47.4

----------
System: K4 kissing-loop RNA reporter
assay-remarks: apparent KD of K4 kissing-loop reporter; higher = weaker reporter binding
assay-conditions: Eterna round: R107; input ligand: theophylline 20 uM
outcome-measure: apparent KD of K4 kissing-loop reporter (nM)
Give just the number in nM; leave the unit off.

Entry AAACAUCACUGGGAGUGAUGUUCUCAGUGACGAGGACCGGUACGGCCGCCACUCGCGAGAGAUUUAGUCUAGUAUUGACUGCAUU [Excl Tryptophan A V11] has what apparent KD of K4 kissing-loop reporter?
353

Also check UUGAGCCUGACGAAAGUCAGGCUCUGCGAGCGAGGACCGGUACGGCCGCCACUCGGUGCAGUGAUGUUGCAUGGCCGCAAGGCCG [#2 Exclusion - Tryptophan A Attempt #14 (HarryS)]
312

Also check AAAAUAAAUCAGUGAUGUUGGUAUCUGGAUACCAGCGAUAAUAAUCGCCCUUGGCAGCCAUGGACGUACAAAAUAAGUACGUCCU [MatMod 18 - Jieux - Same State - Theophylline A]
337

Also check AUUAUAAAGACGGCCGCCACUGAGAGUAGUGAUGUUACUCUUUUCCUUUAGAUAUUAUAUUUUAUCAGGACCGGGUUUUUUGAUU [JR_Nu_ExcTryptoB_Sub025]
88.1

Also check ACACUUUACGUAGGAUAUGCGACGAGUGAUGUUCGUCAGGCGGCUUUAGAUUAUACAAGCCGCCUAGCAGAAGGACGGGCAGUGU [Araar]
158

Also check UCGGCAAAGUCGGCCGCCACUCCGGGCCCUAUAAAUGGGCGCAGUGAUGUUGCGGCUAGGCCUCUGAGGACCGGGACUUUGUAAA [Atordied]
61.7

----------
System: MS2 coat protein
assay-remarks: apparent KD of MS2 coat protein; higher = weaker reporter binding
assay-conditions: Eterna round: R107; input ligand: none
Think of 200 nM as a floor: if apparent KD of MS2 coat protein stands on it or above, it is Satisfied; beneath it, Not satisfied.

Check this sequence for apparent KD of MS2 coat protein at or above 200 nM: GCACAUGAGGAUCACCCAUGUAUUACUGAAGGAGCGAGACAGAACUCAGGUAGGUCGCAGACGGCGGAAUCGCCGACGACAUGGG [Exclusion Arginine A GF23]
Not satisfied

Also check ACAUGAGGAUCACCCAUGUAUUACCGGGAAGGAGCGCGUAAGGACGCAGGUAGGUCGCUCGGCGUCCGGCCGCAAGGCUGGACGA [#1 Same State - Arginine A Attempt #17 (HarryS)]
Not satisfied

Also check AUAACAUGAGGAUCACCCAUGUAAGCAGAUACCAGCUAGGAAACUAGCCCUUGGCAGCUGCAAGGUGAUCCUGCUGCCAAGGUAU [(M1)-(M2)-(T1)-(T2)-(M)'-(T)'_Design7]
Satisfied

Also check AUUCAUAACUGAAGGAGCGUGAUAUAAAUUUUUACAUGAGGAUCACCCAUGUUUCAUCGAUCACAGGUAGGUCGCAGAUUCUCAU [JR_SSArginiB_Sub012]
Not satisfied

Also check UCACAUGAGGAUCACCCAUGUCAUGUUGAAGGAGCGACCAGGAGGUCAGGUAGGUCGCAACACAUGAGGAUCACCCAUGUGGCCC [Qetesh]
Not satisfied

Also check GUAAUUUAUUGAAGGAGCGUCGAAAAUGGGUAAACAUGAGGAUCACCCAUGUAAAGGGAACGACAGGUAGGUCGCAAUAGGUUAC [AstromonsSSArgB#29]
Not satisfied

----------
Test system: K4 kissing-loop RNA reporter;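 also: bound reporter read as fluorescence of individual clusters on recovered sequencing chips by microscopy, with normalized cluster intensities fitted with a binding model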
assay-remarks: apparent KD of K4 kissing-loop reporter; higher = weaker reporter binding
assay-conditions: Eterna round: R107; input ligand: tryptophan 2.4 mM
Record form. Attribute: apparent KD of K4 kissing-loop reporter. Fill in for each entry.

Entry GGAUCCACCAGUGAUGUUGGAGAAAACUCCAAGGAUAUGACGAAAGUCAGAAGGUGGUAAUAAGACGUCAAAGACGUCGGAUCCA [FmnA 19 #SwitchBubble #K4Early] has what apparent KD of K4 kissing-loop reporter?
0.15 µM

Also check GUCCAACCUGGAGGAUAUCUGCUGUCCAGUGAUGUUGGACACCUUAGUAAAGGCCGGGUAGCCCGCAGAGAAGGCCGGAGUUGCC [Isateron]
0.329 µM

Also check UUUUUGGAGAAUUAUAGUGAUGUUAUGAAGGAGGAUAUCUGGAGAUGGAGAAGGCCUAGUGGCUCAGCCCUGGAGGGUGGGUGGG [ExFMNA.aB]
0.572 µM

Also check UUGGCUGGACGGGAUACCAGCCAAAUCGUGUGCUUGGGAUGUCUAAGAGCCAGUGAUGUUGGCCCUUGGCAGCCCUCCCAGCUUG [Inontixe]
0.0984 µM

Also check CCGGGCGGCCGAAGGAGCGGGCGGGCCCGAGUGAUGUUCGGGUGGACCGUGAGGUCCGGUGCCCAGGUAGGUCGCGGUUCCGCCC [#2 Same State - Arginine B Attempt #7 (HarryS)]
0.134 µM

Also check UGUCAUUGGUCUGAUACCAGAAGAAUCUGGAGUGAUGUUCCAAGUCGAUCAAAAGAUCGCUUCCCUUGGCAGCAGACCGAUGACU [TheoBS 24 #SwitchBubble 13 #StaticStem]
0.298 µM
